experiment: Solubility in acetate buffer (25 mM, pH 5), assayed by HPLC; type: physicochemical; conditions: 25 °C, pH 5, aqueous buffer, thermodynamic from solid, pH 5, No NaCl, Day 7
Measured parameter: solubility at 7 day (µg/mL)
Write the number in µg/mL without appending the unit.

Requested field: solubility at 7 day. Item: O=C(O)CSc1nnc(Br)n1-c1ccc(C2CC2)c2ccccc12 [Form 1]
157

====

experiment: Solubility in acetate buffer (25 mM, pH 5), assayed by HPLC; assay type: physicochemical; conditions: 25 °C, pH 5, aqueous buffer, thermodynamic from solid, pH 5, NaCl (I = 0.1), Day 5
Measured parameter: solubility at 5 day (µg/mL)
Form entry: value (µg/mL) — number only.

Requested read-out: solubility at 5 day. Entry: O=C(O)CSc1nnc(Br)n1-c1ccc(C2CC2)c2ccccc12 [Form 1]
257

====

assay: Solubility in acetate buffer (25 mM, pH 5), assayed by HPLC; assay type: physicochemical; conditions: 25 °C, pH 5, aqueous buffer, thermodynamic from solid, pH 5, No NaCl, Day 1
Measured parameter: solubility at 1 day (µg/mL)
Expressed in µg/mL, but write only the number.

Given the molecule O=C(O)CSc1nnc(Br)n1-c1ccc(C2CC2)c2ccccc12 [Form 1] , what is its reported solubility at 1 day?
265
